Non-standard residues stand in square brackets, D forms with d. Residues, ends and D or L forms follow the SMILES beside them. *: point of attachment. Phe(2-Me) = Cc1ccccc1C[CH](N)C(=O)O; Tle = CC(C)(C)[CH](N)C(=O)O; X3 = CC(C)(C)OC(=O)CCC(=O)*; OtBu = CC(C)(C)O*
Property measured: melting point

Compound	Observed measurement
O=C(Cc1cc(I)c(Oc2cc(I)c(OCC3CO3)c(I)c2)c(I)c1)NC1CCCCC1 (configuration not stated)	242 °C
COc1cccc(Sc2cc3c(cc2Sc2cccc(OC)c2)C(=O)c2c(c(O)c4cc(Sc5cccc(OC)c5)c(Sc5cccc(OC)c5)cc4c2O)C3=O)c1	287 to 292 °C

Let me know recorded melting point for Cc1ccccc1CC(NC(=O)C(CCC(=O)OC(C)(C)C)NC(=O)C(CC(=O)OC(C)(C)C)NC(=O)CCC(=O)OC(C)(C)C)C(=O)NC(C(=O)NC(CC(C)C)C(=O)O)C(C)(C)C (X3-D(OtBu)E(OtBu)[Phe(2-Me)][Tle]L-OH; configuration not given here) , thanks.
235 to 236 °C

Let me know recorded melting point for N=C(Nc1ccc2[nH]cc(C3=CCN4CCCC4C3)c2c1)c1cccs1 (configuration not stated) , thanks.
122 to 124 °C

Let me know recorded melting point for `CC1(C)CC(OC(=O)CCCCCCCCC(=O)OC2CC(C)(C)N(OC3CCCCCCCCCCC3)C(C)(C)C2)CC(C)(C)N1OC1CCCCCCCCCCC1` , thanks.
70 to 78 °C

Let me know recorded melting point for COc1cc(OC)c(/C=C/C(c2ccc(OC)c(NC(=O)c3ccc([N+](=O)[O-])cc3)c2)S(=O)(=O)C(/C=C/c2c(OC)cc(OC)cc2OC)c2ccc(OC)c(NC(=O)c3ccc([N+](=O)[O-])cc3)c2)c(OC)c1 (configuration not stated) , thanks.
206 to 208 °C

Let me know recorded melting point for CCOCc1nc2c(N)nc3cc(-c4cccnc4)ccc3c2n1CC1CCN(C(=O)C2CCCO2)CC1 (configuration not stated) , thanks.
191 to 192 °C

---

Residues, ends and D or L forms follow the SMILES beside them. *: point of attachment. Cyclohexanecarbonyl = O=C(C1CCCCC1)*; Bn = c1ccc(C*)cc1
Item-by-item account of melting point

Compound	Property measured	Observed measurement
CCCCCCCCCCCCCCCCCCCCCCCC[C@@H](C(=O)O)[C@H](O)CCCCCCCCCCCCCCC[C@@H]1C[C@@H]1CCCCCCCCCCCCCCCCCCC(=O)[C@@H](C)CCCCCCCCCCCCCCCCCC	melting point	66 to 68 °C
CCC1(CC)c2cc(-c3ccc(N(c4ccccc4)c4ccc(-c5ccc6c(c5)C(CC)(CC)c5cc(-c7nc8ccccc8s7)ccc5-6)cc4)cc3)ccc2-c2ccc(-c3nc4ccccc4s3)cc21	melting point	257 to 262 °C
O=C(c1ccc(I)cc1)c1cc2c3c(c1)C(c1cccc(Cl)c1)CC(=O)N3CC2 (stereo not drawn)	melting point	275 °C
CON=C(C(=O)NC1C(=O)N2C1CSC(c1ccc(Cl)cc1)C2(O)C(=O)OC(C)(C)C)c1csc(NC(c2ccccc2)(c2ccccc2)c2ccccc2)n1 (stereo not drawn)	melting point	191 °C
CCCCCCCCCCSc1c(SCCCCCCCCCC)c(SCCCCCCCCCC)c(SCCCCCCCCCC)c(SCCCCCCCCCC)c1SCCCCCCCCCC	melting point	29 to 30 °C

Let me know recorded melting point for C=CCOC1OC(CO)C(O)C(OC(=O)CC(CCCCCCCCCCC)OCc2ccccc2)C1NC(=O)CC(CCCCCCCCCCC)OCc1ccccc1 (stereo not drawn) , thanks.
80 to 82 °C

Let me know recorded melting point for COC(=O)c1ccc(Cn2c(C(=O)C3CCN(CCC4(c5ccc(OC)c(OC)c5)CCN(C(=O)c5cc(OC)c(OC)c(OC)c5)C4)CC3)nc3ccccc32)cc1 (stereo not drawn) , thanks.
100 to 104 °C

Let me know recorded melting point for `CCCCCCCCCCCCNC(=O)c1cccc(Sc2c(Nc3cc(C(=O)NCCCCCCCCCCCC)ccc3Cl)nn(-c3c(Cl)cc(Cl)cc3Cl)c2OC(=O)CCC)c1` , thanks.
111 to 113 °C

Let me know recorded melting point for `CCc1c(CC[Si](Cl)(Cl)Cl)c(CC[Si](Cl)(Cl)Cl)c(CC[Si](Cl)(Cl)Cl)c(CC[Si](Cl)(Cl)Cl)c1CC[Si](Cl)(Cl)Cl` , thanks.
195 to 198 °C

Let me know recorded melting point for COc1cc(OC)c(/C=C/C(c2ccc(OC)c(NC(=O)C(F)(F)F)c2)S(=O)(=O)C(/C=C/c2c(OC)cc(OC)cc2OC)c2ccc(OC)c(NC(=O)C(F)(F)F)c2)c(OC)c1 (stereo not drawn) , thanks.
179 to 180 °C

Let me know recorded melting point for CC(=O)NC1C(OCc2ccccc2)OC(COCc2ccccc2)C(OC2OC(COCc3ccccc3)C(OCc3ccccc3)C(OCc3ccccc3)C2NC(C)=O)C1O (stereo not drawn) , thanks.
220 to 222 °C

Let me know recorded melting point for CCOC(=O)C1=C(COCC(O)C(O)COCC2=C(C(=O)OCC)C(c3ccccc3Cl)C(C(=O)OC)=C(C)N2)NC(C)=C(C(=O)OC)C1c1ccccc1Cl (stereo not drawn) , thanks.
76.5 to 78 °C

Let me know recorded melting point for `COc1cc(C(=O)Oc2ccc3c(OC(=O)c4ccc(OCc5ccccc5)c(OC)c4)c4cc(OC(=O)c5ccc(OCc6ccccc6)c(OC)c5)ccc4cc3c2)ccc1OCc1ccccc1` , thanks.
186 to 189 °C

Let me know recorded melting point for CN1C(C)(C)CC2(CC1(C)C)NC(=O)N(CC(O)COC(=O)CCCCCCCCCCC(=O)OCC(O)CN1C(=O)NC3(CC(C)(C)N(C)C(C)(C)C3)C1=O)C2=O (stereo not drawn) , thanks.
53 to 57 °C

Let me know recorded melting point for `CS(C)(=O)=NC(=O)c1cccc(Oc2ccc(C(F)(F)F)cc2Cl)c1` , thanks.
110 to 113 °C

Let me know recorded melting point for `CC(C)(C)c1cc(-c2cc(C(C)(C)C)cc(C(C)(C)C)c2Op2oc3ccccc3c3ccccc3o2)c(Op2oc3ccccc3c3ccccc3o2)c(C(C)(C)C)c1` , thanks.
80 °C

Let me know recorded melting point for COC(=O)C(C)NC(=O)C(Cc1ccc(OCc2ccccc2)cc1)NC(=O)C(COCc1ccccc1)NC(=O)C(Cc1c[nH]c2ccccc12)NC(=O)C1CCCCC1 (stereo not drawn) (Cyclohexanecarbonyl-WS(Bn)Y(Bn)A-OMe; configuration not given here) , thanks.
181 to 183 °C

Let me know recorded melting point for `CC(=O)OCCn1c([N+](=O)[O-])cnc1CO` , thanks.
138 to 145 °C
